# experimental system: A2B receptor (Homo sapiens)
# Sequence (P29275 whole entry): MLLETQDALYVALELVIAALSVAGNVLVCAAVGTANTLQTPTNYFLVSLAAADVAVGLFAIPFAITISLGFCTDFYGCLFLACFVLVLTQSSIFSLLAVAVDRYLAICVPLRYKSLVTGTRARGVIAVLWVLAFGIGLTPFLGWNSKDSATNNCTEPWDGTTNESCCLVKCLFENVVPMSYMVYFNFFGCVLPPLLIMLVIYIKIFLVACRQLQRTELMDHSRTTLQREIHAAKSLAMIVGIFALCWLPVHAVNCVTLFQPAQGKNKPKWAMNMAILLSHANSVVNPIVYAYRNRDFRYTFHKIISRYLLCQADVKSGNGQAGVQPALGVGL
# test name: A2bR antagonism IC50, cAMP TR-FRET (Lance Ultra) in HEK-293 cells, NECA as agonist
# Assay type: cell-based
# Parameters: host or cells: HEK-293
# experimental setup: HEK-293 cells expressing A2B receptor; agonist NECA 30 nM (EC90); inhibition of cAMP
Field: label. Allowed values: fulfilled (IC50 < 4 nM) or not fulfilled (IC50 >= 4 nM).

[
  {
    "compound": "Cc1nn2c(N)c(C#N)c(NCCc3ccn(CC4CC(O)C4)n3)nc2c1Cl (racemic)",
    "qualitative label": "not fulfilled"
  }
]

Please let me know if CCc1c(C)nn2c(N)c(C#N)c(NCCc3ccn(C(C)CO)n3)nc12 (centres unmarked) shows IC50 below 4 nM.
fulfilled

Please let me know if `Cc1nn2c(N)c(C#N)c(NCCc3nc(C4(CO)CC4)cs3)nc2c1Cl` shows IC50 below 4 nM.
not fulfilled

Please let me know if `CCc1c(C)nn2c(N)c(C#N)c(NCCc3cccc(CO)n3)nc12` shows IC50 below 4 nM.
fulfilled
